tested_target: MERTK (UniProt Q12866)
Sequence (Q12866 whole entry, looked up): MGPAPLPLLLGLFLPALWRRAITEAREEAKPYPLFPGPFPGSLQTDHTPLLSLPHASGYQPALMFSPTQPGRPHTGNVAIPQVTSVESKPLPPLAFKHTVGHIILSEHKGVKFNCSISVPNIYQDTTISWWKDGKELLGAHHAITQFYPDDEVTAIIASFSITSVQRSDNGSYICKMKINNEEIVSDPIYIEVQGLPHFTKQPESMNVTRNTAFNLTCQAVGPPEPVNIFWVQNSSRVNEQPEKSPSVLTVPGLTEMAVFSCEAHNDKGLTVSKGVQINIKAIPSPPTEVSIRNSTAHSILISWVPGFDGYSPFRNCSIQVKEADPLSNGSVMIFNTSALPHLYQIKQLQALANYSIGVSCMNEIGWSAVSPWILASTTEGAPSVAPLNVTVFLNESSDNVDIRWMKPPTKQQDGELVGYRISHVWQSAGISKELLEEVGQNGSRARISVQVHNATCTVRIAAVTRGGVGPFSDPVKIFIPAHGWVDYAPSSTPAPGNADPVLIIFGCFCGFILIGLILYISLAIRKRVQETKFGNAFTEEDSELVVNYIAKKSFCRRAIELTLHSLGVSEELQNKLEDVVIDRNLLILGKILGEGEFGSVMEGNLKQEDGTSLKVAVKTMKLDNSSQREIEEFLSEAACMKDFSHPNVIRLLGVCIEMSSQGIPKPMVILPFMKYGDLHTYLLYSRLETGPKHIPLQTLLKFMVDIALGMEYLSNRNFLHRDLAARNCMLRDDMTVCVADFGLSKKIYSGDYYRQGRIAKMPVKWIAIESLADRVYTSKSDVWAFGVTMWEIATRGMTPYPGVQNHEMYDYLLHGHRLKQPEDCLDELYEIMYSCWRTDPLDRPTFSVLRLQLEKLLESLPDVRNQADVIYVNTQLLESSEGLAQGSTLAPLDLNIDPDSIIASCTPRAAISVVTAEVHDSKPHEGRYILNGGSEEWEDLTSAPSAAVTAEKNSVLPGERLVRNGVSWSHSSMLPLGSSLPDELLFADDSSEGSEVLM
test: phosphorylation enrichment, bacterial display (enrichment ratio); higher = better substrate or ligand; peptides without Tyr show the background;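 further: 11-residue human phosphosite peptides and single-mutation variants displayed on the E. coli surface, counted by deep sequencing, each peptide's frequency after selection divided by its frequency in the unselected input library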;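 further: frequency after pTyr selection over input frequency; kinase dosed for 20-30% of maximal phosphorylation in three min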
// classify(record): look up phosphorylation enrichment in ranges lower band (below 0.4), central band (0.4 to below 0.6), upper band (0.6 or more)

[ask] Which of the defined bands does the recorded phosphorylation enrichment of SHMVNYQPFRK [TEX37_Y25_D24N_YF] sit within?
[reply] lower band

[ask] Which of the defined bands does the recorded phosphorylation enrichment of RLVTRYIFNRE [HLA-DQB1_Y62_Y58L_YF] sit within?
[reply] upper band

[ask] Which of the defined bands does the recorded phosphorylation enrichment of KEELAYLKKNH [KRT14_Y248] sit within?
[reply] lower band

[ask] Which of the defined bands does the recorded phosphorylation enrichment of GSQERYFELVE [TSC2_Y407] sit within?
[reply] central band

[ask] Which of the defined bands does the recorded phosphorylation enrichment of "TKGNEYVFRVA" sit within?
[reply] central band

[ask] Which of the defined bands does the recorded phosphorylation enrichment of ELETLYKKAVK [CC2D2A_Y381] sit within?
[reply] central band

[ask] Which of the defined bands does the recorded phosphorylation enrichment of RLLVLYPWTQR [HBB_Y36_V35L] sit within?
[reply] central band

[ask] Which of the defined bands does the recorded phosphorylation enrichment of TYGNLYGSRKQ [YIPF7_Y59_A54T] sit within?
[reply] upper band

[ask] Which of the defined bands does the recorded phosphorylation enrichment of PSPTRYSLSPS [RANBP2_Y785] sit within?
[reply] central band

[ask] Which of the defined bands does the recorded phosphorylation enrichment of GGSTYYIDTNA [ACTL6A_Y69_P66S] sit within?
[reply] upper band

[ask] Which of the defined bands does the recorded phosphorylation enrichment of "ENAGYYFRISA" sit within?
[reply] lower band
